Test system: SF-539
Assay: NCI tumour cell line growth inhibition, 48 h
The source made the active and inactive calls. No stated cut-off is given here; in the data, active = GI50 up to about 1.1 µM and inactive = higher.
Labels: Y for active, N for inactive

# molecule, measured.target, discrete.label
records = [
    ("CCOP(=O)(OCC)C(N)Cc1ccc(OC)c(OC)c1 (centres undefined)", "SF-539", "N"),
    ("Nc1nc(CCC(=O)Nc2cccc(C(F)(F)F)c2)cc(-c2ccc3ccccc3c2)n1", "SF-539", "N"),
    ("CC(=O)Nc1ccc(C(=O)NN2C(=O)C(Cl)/C2=C/c2ccco2)cc1 (centres undefined)", "SF-539", "N"),
    ("CCO/C(=N/S(=O)(=O)C(F)(F)F)N(C(C)C)C(C)C", "SF-539", "N"),
    ("N#Cc1cc2c(cc1C#N)SCCSCCCSCCS2", "SF-539", "N"),
    ("Nc1ncnc2c1ncn2[C@H]1C=C[C@@H](NO)C1", "SF-539", "N"),
    ("CC1=CC[C@H](C(C)C)C(C(O)[C@@H](C)O[Si](c2ccccc2)(c2ccccc2)C(C)(C)C)C1=O (some centres undefined)", "SF-539", "N"),
    ("O=C(Nn1c(-c2ccccc2)nc2ccccc2c1=O)c1ccc(CS)cc1", "SF-539", "N"),
    ("CCCCN(CCCC)C(=O)C(=O)CC(=O)c1ccc(Br)cc1", "SF-539", "N"),
    ("N=C1c2ccccc2C(=O)c2c(NCCNCCO)ccc(O)c21", "SF-539", "N"),
    ("CCC(=O)O[C@H]1CC[C@H]2[C@@H]3CCC4=C/C(=N/OC(=O)c5cccc6cc7ccccc7nc56)CC[C@]4(C)[C@H]3CC[C@]12C", "SF-539", "N"),
    ("CC(C)C(/N=C1\\CC2CCC1(C(=O)Nc1ccccc1O)C2(C)C)c1ccccc1 (centres undefined)", "SF-539", "N"),
    ("C/C(=N\\[N+](C)(C)C)c1ccc(C)c(C)c1", "SF-539", "N"),
    ("OCCCCCCOc1ccc(-c2cc(-c3ccccn3)nc(-c3ccccn3)c2)cc1", "SF-539", "Y"),
    ("CCOC(=O)c1ccc2nc(NC(=O)COC(=O)CSc3nc(C)cc(C)n3)sc2c1", "SF-539", "N"),
    ("O=C1NC2C(O)CCCCC2C12CCCCC2 (centres undefined)", "SF-539", "N"),
    ("CC(=O)NNc1nc(C)c(C(/C=C/c2ccc([N+](=O)[O-])cc2)=N/N)s1", "SF-539", "N"),
    ("CCOC(=O)NN(C(=O)OCC)c1ccc(/N=N/c2ccc(OC)cc2)n1C", "SF-539", "N"),
    ("COC1C(N)C(OC2C(Oc3cccc4c(O)c5c(=O)oc6ccc(C)c7c(=O)oc(c34)c5c67)OC(C)C(O)C2(C)O)OC(C)C1O (centres undefined)", "SF-539", "Y"),
    ("COc1ccc(N(C)CN(C)c2nc(N(C)C)nc(N(C)C)n2)cc1", "SF-539", "N"),
    ("CC12CCc3ccccc3C1=Nc1ccccc12 (centres undefined)", "SF-539", "N"),
    ("CN1C(=O)CCC1c1ccc2c(c1)oc(=O)n2C (centres undefined)", "SF-539", "N"),
    ("C=CCn1c(=O)c2ccccc2[n+]2c(-c3cccc([N+](=O)[O-])c3)csc12", "SF-539", "N"),
    ("Cn1c2ccccc2c2ccc3c(c21)C(=O)c1ccccc1C3=O", "SF-539", "N"),
]
